Tgt: T1, human IL-1RAcP on 293T/17-FR cells (human, UniProt Q9NPH3 21-570)
T1 sequence (looked up): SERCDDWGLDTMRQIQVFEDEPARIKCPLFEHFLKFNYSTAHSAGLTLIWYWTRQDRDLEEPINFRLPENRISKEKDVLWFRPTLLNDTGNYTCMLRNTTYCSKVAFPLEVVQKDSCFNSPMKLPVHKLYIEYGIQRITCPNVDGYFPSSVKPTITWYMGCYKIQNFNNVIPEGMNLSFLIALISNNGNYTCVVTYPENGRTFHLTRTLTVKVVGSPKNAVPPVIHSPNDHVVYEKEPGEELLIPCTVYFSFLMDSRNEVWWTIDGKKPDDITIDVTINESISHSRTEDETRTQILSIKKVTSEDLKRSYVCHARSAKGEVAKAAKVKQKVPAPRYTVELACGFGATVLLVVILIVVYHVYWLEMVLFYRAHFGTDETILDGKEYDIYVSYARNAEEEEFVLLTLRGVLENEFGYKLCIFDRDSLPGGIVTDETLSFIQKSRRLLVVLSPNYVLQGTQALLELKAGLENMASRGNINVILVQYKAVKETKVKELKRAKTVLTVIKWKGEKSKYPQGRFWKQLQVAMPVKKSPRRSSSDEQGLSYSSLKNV
Method Notes: cell-based or functional assay
Each entry below carries its recorded functional reporter gene assay (% inhibition), 0.2 µg/mL mAb.

- P013.S.01.B.F06 (antibody, V domains shown, rabbit monoclonal antibody; also called P013.A.00045.E09) VH: QSVEESGGRLVTPGTPLTLTCTVSGIDLSSDAVGWVRQAPGKGLEYIGIIVSSGETFYASWARGRCTISKTSSTTVDLRITRLTTEDTATYFCARGGPGYSFDTEYAFDPWGPGTLVTVSS VL: AFEMTQTPASVEVAVGGTVTINCQASQSIGSWLSWYQQKVGQRPKLLISRASTLASGVPSRFKGSGSGTEYTLTISGVQSDDAATFYCQQGATTYDVDNVFGGGTEVVVR: 52%

Continue with the next binder.
Entry P013.S.02.B.C01 (antibody, V domains shown, rabbit monoclonal antibody; also called P013.A.00109.C12) VH: QSVEESGGRLVTPGGSLTLTCTVSGFSLSVYAMGWFRQAPGKGLEWIGDIYTGSGSTWYASWAKGRFTISKTSTTVDLKITSPTTEDTATYFCAREIDAGYVGYGFNLWGQGTLVTVSS VL: AQALTQTPSSVSAAVGGTVTINCQSSQSVYSDYLVWYQQKPGQPPKLLIYQASKLASGVPSRFKGSGSGTQFTLTISGVQSDDAATYYCQATYSSTGWYRAFGGGTEVVVK has what functional reporter gene assay (% inhibition), 0.2 µg/mL mAb?
28%
